Below is a list of entries, each paired with its recorded melting point value.
endpoint: melting point

molecule=O=[N+]([O-])c1ccc2[nH]cc(Cc3ccc(F)cc3)c2c1 result="142 to 144 °C"
molecule=CC(C)C(NC(=O)C(C)(C)C)C(C)C result="107 to 109 °C"
molecule=CCN(CC)CCc1nc(-c2ccc(OC)c(OC)c2)c2cc(OC)c(OC)cc2n1 result="164 to 166 °C"
molecule=COc1cc(OC)nc(Sc2c(NS(=O)(=O)CC#N)nc(C)n2C)n1 result="223 to 225 °C"
molecule="Cc1cc2c(c3ccc(=O)[nH]c13)OC(COS(C)(=O)=O)C2 (centres undefined)" result="200 to 203 °C"
molecule=N#Cc1ccc(OCC(F)(F)F)c(F)c1 result="62 to 67 °C"
molecule=COc1cc(C(=O)N2Cc3ccc(C(=O)NCc4ccc5c(c4)OCCO5)n3Cc3ccccc32)ccc1-c1ccccc1C result="153 to 155 °C"
molecule="O=c1ccccn1C1c2cc(S(=O)c3ccccc3)ccc2OCCC1O (centres undefined)" result="181 to 184 °C"
molecule="Cc1oc(C2=NOC(c3cc(Cl)cc(Cl)c3)(C(F)(F)F)C2)cc1C(=O)NCC(=O)NCC(F)(F)F (centres undefined)" result="172 to 174 °C"
